- protocol_summary: Immunosuppressive activity in Kunming mouse splenocyte assessed as reduction in ConA-stimulated T-lymphocytes proliferation incubated for 72 hrs by CCK-8 assay
- Assay type: functional, cell-based
- condition: T-cell
observed_property: IC50 (µM)
Write the number in µM without appending the unit.

Query: IC50; subject: CC(=O)NCCc1cc(O)c(O)cc1S(C)(=O)=O 33

* * *

- tgt: Casein kinase I isoform delta (Homo sapiens, UniProt P48730)
- Sequence (P48730 whole entry, the tested form may be a part, canonical isoform): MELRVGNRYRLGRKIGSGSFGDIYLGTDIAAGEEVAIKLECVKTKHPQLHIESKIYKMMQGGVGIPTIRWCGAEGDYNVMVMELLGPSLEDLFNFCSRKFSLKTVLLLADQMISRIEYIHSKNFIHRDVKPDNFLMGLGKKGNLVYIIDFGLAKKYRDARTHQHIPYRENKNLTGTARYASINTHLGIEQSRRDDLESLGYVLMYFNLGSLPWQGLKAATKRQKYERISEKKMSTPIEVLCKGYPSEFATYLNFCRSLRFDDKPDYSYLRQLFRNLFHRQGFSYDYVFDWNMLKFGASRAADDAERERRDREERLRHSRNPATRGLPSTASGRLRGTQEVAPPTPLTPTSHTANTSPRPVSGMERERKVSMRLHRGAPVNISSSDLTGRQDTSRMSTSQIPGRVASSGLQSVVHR
- protocol_summary: Inhibition of N-terminal GST-tagged human recombinant CK1delta (1 to 294 residues) expressed in Escherichia coli incubated for 60 mins in presence of ATP by Kinase-glo luminescent assay
observed_property: pIC50
To interpret pIC50, take it as minus log10 of a concentration measured in moles per litre.

smiles=O=c1oc2cc(O)c(O)cc2c2c(-c3ccc(O)c(O)c3)cn(CCc3ccc(O)c(O)c3)c12 tgt="Casein kinase I isoform delta (Homo sapiens, UniProt P48730)" result=5.82

Which pIC50 is reported with Casein kinase I isoform delta (Homo sapiens, UniProt P48730) for this entry: O=C(O)c1[nH]c2c(=O)oc3cc(O)c(O)cc3c2c1-c1ccc(O)c(O)c1 ? 5.64

Values compiled from ChEMBL document CHEMBL5390243.
